- EXPERIMENTAL TARGET: Glucocorticoid receptor (Homo sapiens, UniProt P04150)
- Sequence (P04150 whole entry): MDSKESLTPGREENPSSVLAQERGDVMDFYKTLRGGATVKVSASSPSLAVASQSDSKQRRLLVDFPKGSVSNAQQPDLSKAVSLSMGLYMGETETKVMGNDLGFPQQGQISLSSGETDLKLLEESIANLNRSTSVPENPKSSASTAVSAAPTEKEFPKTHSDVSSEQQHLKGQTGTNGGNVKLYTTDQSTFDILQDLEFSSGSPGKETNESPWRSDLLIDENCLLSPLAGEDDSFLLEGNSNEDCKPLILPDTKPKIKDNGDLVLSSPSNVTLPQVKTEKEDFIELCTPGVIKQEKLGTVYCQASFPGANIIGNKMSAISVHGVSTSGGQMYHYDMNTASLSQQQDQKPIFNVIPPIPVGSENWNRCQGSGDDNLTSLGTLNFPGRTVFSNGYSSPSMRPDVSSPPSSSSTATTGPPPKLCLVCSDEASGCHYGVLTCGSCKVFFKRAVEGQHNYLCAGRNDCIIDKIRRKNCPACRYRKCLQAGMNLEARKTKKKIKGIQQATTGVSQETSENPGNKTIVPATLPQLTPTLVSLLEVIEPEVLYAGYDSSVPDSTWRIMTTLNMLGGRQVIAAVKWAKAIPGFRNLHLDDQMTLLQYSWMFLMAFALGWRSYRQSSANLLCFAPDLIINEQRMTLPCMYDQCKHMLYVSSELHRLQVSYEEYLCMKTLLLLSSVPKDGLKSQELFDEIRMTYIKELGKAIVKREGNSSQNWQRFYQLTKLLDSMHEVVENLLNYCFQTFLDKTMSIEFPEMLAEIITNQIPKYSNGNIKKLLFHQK
- PROTOCOL DESCRIPTION: Transcriptional repression activity in HEP G2 cells expressing glucocorticoid receptor compared to Dexamethasone
- Assay type: functional, cell-based, HepG2
pIC50: −log10 of the molar value.
VALUE TYPE: pIC50

Previously resolved entries follow.
COc1cccc2c1-c1ccc3c(c1C(c1cc(C)cc(C)c1)O2)C(C)=CC(C)(C)N3 (stereo not drawn); 7.74
COc1cccc2c1-c1ccc3c(c1C(c1ccccc1)O2)C(C)=CC(C)(C)N3 (stereo in doubt; 10); 6.91
COCOc1cccc(C2Oc3cccc(OC)c3-c3ccc4c(c32)C(C)=CC(C)(C)N4)c1 (stereo not drawn); 7.64
COc1cccc2c1-c1ccc3c(c1C(c1cccc(OC(=O)N(C)C)c1)O2)C(C)=CC(C)(C)N3 (stereo not drawn); 8.22

(1) COc1cccc2c1-c1ccc3c(c1C(c1cc(C)cc(Br)c1)O2)C(C)=CC(C)(C)N3 (stereo not drawn)
(2) COc1cccc2c1-c1ccc3c(c1C(c1cc(F)cc(F)c1)O2)C(C)=CC(C)(C)N3 (stereo not drawn)
(3) COc1cccc2c1-c1ccc3c(c1C(c1cccc(OCSC)c1)O2)C(C)=CC(C)(C)N3 (stereo not drawn)
(4) COc1cccc2c1-c1ccc3c(c1C(c1cccc(C(F)(F)F)c1)O2)C(C)=CC(C)(C)N3 (stereo not drawn)
**Query** rank_up(items): orders items by reported pIC50 in ascending numerical order. Hello, could you send the labels back in the order asked? Thank you.
**Result** 4, 1, 2, 3
(4: 7.24, 1: 7.74, 2: 8.05, 3: 8.40)
